Where do the numbers come from? From PubChem BioAssay (NCI).

system: LOX IMVI melanoma; assay: NCI tumour cell line growth inhibition, 48 h; in the data active = GI50 below about 0.43 µM; inactive = the rest
In this exercise, the only acceptable responses are t = active, f = inactive

{"columns": ["molecule", "category"],
 "data": [
  ["Cc1c(N2C(=O)/C(=C\\c3ccc(O)cc3)N=C2c2ccccc2)c(=O)n(-c2ccccc2)n1C", "f"],
  ["CC(C)(C)c1ccc(C(=O)N/N=C/c2ccc(O)cc2O)cc1", "t"],
  ["C/C1=C\\CC[C@@](C)(O)[C@H]2C[C@H](CC/C(C)=C/CC1)C1(CC1)C(=O)O2", "f"],
  ["O=C(Cc1ccc(/C=C/C(=O)c2ncc[nH]2)cc1)Nc1ccc(Br)cc1", "f"],
  ["COC(=O)C1CC2(c3ccc(C)cc3)C(c3ccc(C)cc3)=C(c3ccc(C)cc3)C1(c1ccc(C)cc1)S2=O (configuration not stated)", "f"],
  ["Cc1cc(-c2ccccc2)c(C)n1Cc1ccc(Cl)cc1", "f"]
]}

**Query** // param item: CC12C=CC(C)(O1)C1C2c2ccccc2S1(=O)=O (configuration not stated) ; yields the recorded call
**Result** f
